compound	unit.descriptor	glass transition temperature
*CCC1C(=O)N(CCCC)C(=O)C1* (repeat unit)	°C	67.90
*Oc1ccc(NC(=O)c2ccc(P(=O)(c3ccccc3)c3ccc(C(=O)Nc4ccc(*)cc4)cc3)cc2)cc1 (repeat unit)	°C	254.00
*C(=O)Nc1ccc(-c2ccc(NC(=O)c3ccc4c(c3)C(=O)N(c3cccc(P(=O)(c5ccccc5)c5cccc(N6C(=O)c7ccc(*)cc7C6=O)c5)c3)C4=O)cc2)cc1 (repeat unit)	°C	253.00
*CC(*)OC(=O)C(C)(C)CCC (repeat unit)	°C	10.00

====

Parameter glass transition temperature: see the listing below.

molecule	glass transition temperature [°C]
*Nc1cccc(NC(=O)CCCCCCCCC(=O)Nc2ccc(C(=O)NC(*)=S)cc2)c1 (repeat unit)	265.00
*CCN(CCOC(=O)Nc1ccc(-c2ccc(NC(=O)O*)c(OC)c2)cc1OC)c1ccc(/N=N/c2ccc([N+](=O)[O-])cc2)cc1 (repeat unit)	140.00
*CC(*)c1cccc(OC(C)=O)c1 (repeat unit)	76.00
*c1ccc(Cc2ccc(-n3c(=O)c4cc5c(=O)n(*)c(=O)c5cc4c3=O)c(C(C)(C)C)c2)cc1C(C)(C)C (repeat unit)	217.00
*CCC1C(=O)N(c2ccc(N(C)C)cc2)C(=O)C1* (repeat unit)	195.00
*C(=O)c1ccc(Oc2ccc(Oc3ccc(C(=O)c4ccc5c(c4)C(=O)N(c4ccc(Oc6ccc(N7C(=O)c8ccc(*)cc8C7=O)cc6)cc4)C5=O)cc3)cc2)cc1 (repeat unit)	220.00
*CCCCCCNC(=O)c1c(Cl)c(Cl)c(C(=O)N*)c(Cl)c1Cl (repeat unit)	282.00
*C1C(=O)OC(=O)C1C1C2CC(C(=O)OCCOCC)C(C2)C1* (repeat unit)	155.00
*Oc1ccccc1C(=O)OC(=O)c1ccccc1OC(=O)CCCC(*)=O (repeat unit)	50.00
*CC(OCC(C)C)C(C(=O)OC)C(*)C(=O)OC (repeat unit)	44.50
*c1ccc(Oc2ccc(C(=O)c3ccc(Oc4ccc(-c5nc(-c6cccc(-c7nc(*)c(-c8ccccc8)[nH]7)c6)[nH]c5-c5ccccc5)cc4)cc3)cc2)cc1 (repeat unit)	282.00
*c1ccc2c(c1)C(=O)N(c1cccc(Oc3cccc(N4C(=O)c5ccc(C(*)(C(F)(F)F)C(F)(F)F)cc5C4=O)c3)c1)C2=O (repeat unit)	244.00
*C(=O)c1cccc(C(=O)N(*)c2ccccc2)c1 (repeat unit)	148.00
*CCCCO* (repeat unit) [Poly(tetramethylene glycol)]	-83.6
*[Si](*)(C)CCC(F)(F)F (repeat unit)	-3.00
*O[Si](*)(C)CC[Si](C)(C)O[Si](C)(C)CCCOc1cc(OC(=O)c2ccc(OCCCC)cc2)ccc1/N=N/c1ccc(OCCCC)cc1 (repeat unit)	-4.00
*C(=O)c1ccc2c(c1)C(=O)N(c1cc(OCCCC)cc(N3C(=O)c4ccc(*)cc4C3=O)c1)C2=O (repeat unit)	244.00
*c1ccc(Oc2ccc(C(c3ccc(Oc4ccc(N5C(=O)c6ccc7c8c(ccc(c68)C5=O)C(=O)N(*)C7=O)cc4)cc3)(C(F)(F)F)C(F)(F)F)cc2)cc1 (repeat unit)	280.00
*c1cccc(Oc2ccc(C(c3ccc(Oc4cccc(-n5c(=O)c6cc7c(=O)n(*)c(=O)c7cc6c5=O)c4)cc3)(C(F)(F)F)C(F)(F)F)cc2)c1 (repeat unit)	226.50
*CCCCCCNC(=O)c1cc(NC(=O)c2ccc(NC(=O)C(CC(C)C)N3C(=O)c4ccccc4C3=O)cc2)cc(C(=O)N*)c1 (repeat unit)	200.00
*Oc1ccc(OC(=O)c2cccc(C(*)=O)c2)cc1 (repeat unit)	186.00
*CCCOc1cccc(C(=O)OC(=O)c2cccc(O*)c2)c1 (repeat unit)	53.00
*CC(*)CNc1ccc([N+](=O)[O-])cn1 (repeat unit)	151.00
*CCOc1ccc(S(=O)(=O)c2ccc(OCCOP(=O)(O*)Oc3ccc(Br)cc3)cc2)cc1 (repeat unit)	59.00
*CC(CS(C)(=O)=O)O* (repeat unit)	85.00

====

Parameter glass transition temperature: see the listing below.

molecule	unit.descriptor	glass transition temperature
*O[Si](*)(C)CCCOc1ccc(C(=O)Oc2ccc(OC)cc2)cc1 (repeat unit)	°C	37.00
*Oc1ccc(OC(=O)c2ccc(C(*)=O)cc2)cc1-c1cccc(C(F)(F)F)c1 (repeat unit)	°C	155.80
*CC(*)(C)C(=O)OCCC1CC[N+](C)(CCCCCCOc2ccc(/N=N/c3ccc([N+](=O)[O-])cc3)cc2)CC1 (repeat unit)	°C	57.80
*/C=C(/*)c1ccccc1C(F)(F)F (repeat unit)	°C	130.00
*Oc1ccc(C2(c3ccc(OC(=O)c4ccc(Oc5ccc(C6(c7ccc(Oc8ccc(C(*)=O)cc8)cc7)CCC(C(C)(C)C)CC6)cc5)cc4)cc3)C3CC4CC(C3)CC2C4)cc1 (repeat unit)	°C	197.00
*Oc1ccc(-c2ccc(NC(=O)c3cc(C(=O)Nc4ccc(-c5ccc(Oc6ccc(C(C)(C)c7ccc(*)cc7)cc6)c(C(F)(F)F)c5)cc4)cc(C(C)(C)C)c3)cc2)cc1C(F)(F)F (repeat unit)	°C	248.50
*CCC[Si](C)(C)O[Si](C)(C)CCCN1C(=O)c2ccc(C(=O)c3ccc4c(c3)C(=O)N(*)C4=O)cc2C1=O (repeat unit)	°C	68.00
*c1ccc(Oc2ccc(C(=O)c3cccc(C(=O)c4ccc(Oc5ccc(N6C(=O)c7ccc(Oc8ccc(Oc9ccc(Oc%10ccc%11c(c%10)C(=O)N(*)C%11=O)cc9)cc8)cc7C6=O)cc5)cc4)c3)cc2)cc1 (repeat unit)	°C	192.00
*Oc1ccc(S(=O)(=O)c2ccc3cc(S(=O)(=O)c4ccc(Oc5c(C)cc(-c6cc(C)c(*)c(C)c6)cc5C)cc4)ccc3c2)cc1 (repeat unit)	°C	280.00
*CC(=O)Nc1ccc(S(=O)(=O)c2ccc(NC(=O)c3ccc4c(c3)C(=O)N(*)C4=O)cc2)cc1 (repeat unit)	°C	232.00
*c1ccc(Oc2ccc(S(=O)(=O)c3ccc(Oc4ccc(-c5cc(*)n(-c6ccccc6)n5)cc4)cc3)cc2)cc1 (repeat unit)	°C	235.00
*C1C(=O)N(CCCCOc2ccc(-c3ccc(C#N)cc3)cc2)C(=O)C1* (repeat unit)	°C	115.00
*Nc1ccc(C(=O)c2ccc(NC(=O)c3cc(C(*)=O)cc(C(C)(C)C)c3)cc2)cc1 (repeat unit)	°C	271.00
*CC(CO*)(CS(=O)(=O)CC)CS(=O)(=O)CC (repeat unit)	°C	84.00
*CC(*)(C)C(=O)OCc1ccccc1Cl (repeat unit)	°C	54.10
*Nc1ccccc1CCc1ccc(NC(=O)Nc2ccc(CCc3ccc(NC(*)=O)cc3)cc2)cc1 (repeat unit)	°C	217.00
*CC(*)(C)C(=O)OCCOCCO (repeat unit)	°C	20.00
*CCSS* (repeat unit)	°C	-27.00
*c1ccc(Oc2ccc(-c3cccc4c3C(=O)N(Oc3ccc(C(=O)c5ccc(Oc6cccc7c6C(=O)N(*)C7=O)cc5)cc3)C4=O)cc2)cc1 (repeat unit)	°C	252.00
*Oc1ccc(C2(c3ccc(OC(=O)OC4C(C)(C)C(OC(*)=O)C4(C)C)cc3)CC3CCC2C3)cc1 (repeat unit)	°C	184.00
*CC(*)(CC(=O)OCCCCC)C(=O)OCCCCC (repeat unit)	°C	2.00
*c1ccc(N(c2ccc(C#N)cc2)c2ccc(N3C(=O)c4ccc(Oc5ccc6c(c5)C(=O)N(*)C6=O)cc4C3=O)cc2)cc1 (repeat unit)	°C	304.00
*Oc1ccc(C(C)c2ccc(OC(*)=S)cc2)cc1 (repeat unit)	°C	107.00
*CC(*)(C#N)C(=O)OC (repeat unit)	°C	147.50

====

So basically, if glass transition temperature comes in under 100 °C it's Condition met, and if it's 100 °C or more it's Condition not met.

compound	category
*Oc1c(Cl)cc(C2(c3cc(Cl)c(OC(*)=O)c(Cl)c3)CCCCC2)cc1Cl (repeat unit)	Condition not met
*CC(CCCCCCCC)COC(=O)NC(=O)c1cccc(C(=O)NC(=O)O*)c1 (repeat unit)	Condition met
*C(=O)CCCCCCCCC(=O)N1CCN(*)CC1 (repeat unit)	Condition met
*Oc1ccc(C(=O)Nc2ccc(S(=O)(=O)c3ccc(NC(=O)c4ccc(Oc5ccc(C(=O)c6ccc(S(=O)(=O)c7ccc(C(=O)c8ccc(*)cc8)cc7)cc6)cc5)cc4)cc3)cc2)cc1 (repeat unit)	Condition not met
*/C=C(/c1ccc(*)cc1)c1ccc(C(F)(F)F)cc1 (repeat unit)	Condition not met
*CC(*)(C)C(=O)Oc1ccc(C(=O)/C=C/c2ccc(Cl)cc2)cc1 (repeat unit)	Condition not met
*O[Si](C)(CCC(F)(F)F)CCC(F)(F)C(F)(F)C(F)(F)C(F)(F)CC[Si](*)(C)CCC(F)(F)F (repeat unit)	Condition met
*Nc1ccc(Cc2ccc(NC(=O)c3cc(C(*)=O)cc(N4C(=O)C5C6CCC(C6)C5C4=O)c3)cc2)cc1 (repeat unit)	Condition not met
*CC(*)C(=O)OCCCCCn1c2ccccc2c2ccccc21 (repeat unit)	Condition met
*c1ccc(Sc2ccc(Sc3ccc(Sc4ccc(-n5c(=O)c6cc7c(=O)n(*)c(=O)c7cc6c5=O)cc4)cc3)cc2)cc1 (repeat unit)	Condition not met
